Tested on: 598228-144-R-J1-PDC complex spheroid viability;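 also: spheroids exposed to the agents for one week before reading; percent of vehicle DMSO control viability so 100% = untreated growth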
ASSAY PROTOCOL: Anticancer human tumor 598228-144-R-J1-PDC patient-derived serous endometrial adenocarcinoma cell line growth inhibition [GQUAD]
CONDITION SET: second compound 3.16 µM; first compound 0.000999 µM; stronger effect = lower value
MEASURE NAME: viability, T/C (%)
Please give a number only; it is taken to be in %.

Solved cases (4 shown):
>>> readout_value("CC[C@@]1(O)C(=O)OCc2c1cc1n(c2=O)Cc2cc3c(CN(C)C)c(O)ccc3nc2-1 + Cc1cnc(CNC(=O)c2c(=O)c3ccc(N4CCCN(C)CC4)nc3n3c2sc2ccccc23)cn1")
67.4
>>> readout_value("CC[C@@]1(O)C(=O)OCc2c1cc1n(c2=O)Cc2cc3c(CN(C)C)c(O)ccc3nc2-1 + Cc1[nH]c2ccc(F)cc2c1-c1nc2c3cccnc3c3ncccc3c2[nH]1")
39.1
>>> readout_value("Cn1ncnc1[C@H]1c2n[nH]c(=O)c3cc(F)cc(c23)N[C@@H]1c1ccc(F)cc1 + Cc1cnc(CNC(=O)c2c(=O)c3ccc(N4CCCN(C)CC4)nc3n3c2sc2ccccc23)cn1")
57.5
>>> readout_value("CCc1c2c(nc3ccc(O)cc13)-c1cc3c(c(=O)n1C2)COC(=O)[C@]3(O)CC + CN(C)c1ccc(Nc2c3ccc(NC(=O)CCN4CCCC4)cc3nc3cc(NC(=O)CCN4CCCC4)ccc23)cc1")
58.6

Consider now this further compound.
Print 598228-144-R-J1-PDC complex spheroid viability viability, T/C for CCc1c2c(nc3ccc(O)cc13)-c1cc3c(c(=O)n1C2)COC(=O)[C@]3(O)CC + Cc1cnc(CNC(=O)c2c(=O)c3ccc(N4CCCN(C)CC4)nc3n3c2sc2ccccc23)cn1 . 70.3
